# EXPERIMENT NOTES: Pharmacokinetics after oral administration
# Format: in vivo, Sprague–Dawley rats
# DETAILS: both sexes, Sprague-Dawley, rat, plasma, GA 50 mg kg^−1, n = 6

# COMPOUND, MRT, h
data = [
    ("O=c1c(O)c(-c2ccccc2)oc2cc(O)cc(O)c12 [Free GA, 3,5,7-trihydroxyflavone]", 5.25),
]

====

# EXPERIMENT NOTES: Pharmacokinetics after oral administration
# Format: in vivo, Sprague–Dawley rats
# DETAILS: both sexes, Sprague-Dawley, rat, plasma, GA 50 mg kg^−1, n = 6

# COMPOUND, VALUE UNIT, half-life
data = [
    ("O=c1c(O)c(-c2ccccc2)oc2cc(O)cc(O)c12 [Free GA, 3,5,7-trihydroxyflavone]", "h", 3.64),
]
